- assay target: PSD-95 PDZ1 (Homo sapiens)
- Construct: PSD-95 PDZ1 (aa 61–151); made in house; host or cells: E. coli One Shot BL21 Star (DE3)
- protocol text: FP competition assay, PSD-95 PDZ1 (probe Cy5-KIF1Bα)
- Type: binding
- condition summary: 25 nM Cy5-KIF1Bα, 10 mM HEPES pH 7.4, 150 mM NaCl, 1% BSA, room temperature, mean Ki ± SEM from two or more independent experiments, read-out: K i PDZ1
Peptide text beside a SMILES is read from it.
measured attribute: pKi
// field semantics: pKi = negative decimal log of concentration (mol/L)

These solved cases illustrate the format of a correct answer.
* CC[C@H](C)[C@H](NC(=O)[C@H](CCCNC(=N)N)NC(=O)[C@H](CO)NC(=O)[C@@H](NC(=O)[C@H](CS)NC(=O)[C@@H](NC(=O)CNC(=O)[C@H](CCCNC(=N)N)NC(=O)[C@H](CC(=O)O)NC(=O)[C@H](CC(=O)O)NC(=O)[C@@H](N)Cc1ccc(O)cc1)[C@@H](C)O)[C@@H](C)O)C(=O)N[C@H](C(=O)N[C@H](C(=O)N[C@@H](CC(C)C)C(=O)O)[C@@H](C)O)[C@@H](C)O [SSTR1 Human] (H-YDDRGTCTSRITTL-OH) | 4.30
* CC[C@H](C)[C@H](NC(=O)[C@H](CC(=O)O)NC(=O)[C@H](CCC(N)=O)NC(=O)[C@H](CCCNC(=N)N)NC(=O)[C@H](CC(=O)O)NC(=O)[C@H](CC(=O)O)NC(=O)[C@@H](N)Cc1ccc(O)cc1)C(=O)N[C@H](C(=O)N[C@@H](CC(=O)O)C(=O)N[C@@H](CC(C)C)C(=O)N[C@@H](CCC(N)=O)C(=O)N[C@H](C(=O)N[C@@H](CCC(=O)O)C(=O)N[C@H](C(=O)O)C(C)C)[C@@H](C)O)[C@@H](C)CC [BAI1] (H-YDDRQDIIDLQTEV-OH) | 4.20
* CC(C)C[C@H](NC(=O)[C@@H](NC(=O)[C@@H](NC(=O)[C@H](CO)NC(=O)[C@@H](NC(=O)[C@H](Cc1c[nH]cn1)NC(=O)CNC(=O)[C@H](CO)NC(=O)[C@H](CO)NC(=O)[C@H](CO)NC(=O)[C@H](CCCNC(=N)N)NC(=O)[C@H](CC(=O)O)NC(=O)[C@H](CC(=O)O)NC(=O)[C@@H](N)Cc1ccc(O)cc1)[C@@H](C)O)[C@@H](C)O)[C@@H](C)O)C(=O)O [CXCR2] (H-YDDRSSSGHTSTTL-OH) | 3.55

Continue with the compound presented below.
So what does the record say about pKi for CC[C@H](C)[C@H](NC(=O)[C@H](CCCNC(=N)N)NC(=O)[C@H](CCC(=O)O)NC(=O)[C@H](CO)NC(=O)[C@@H](NC(=O)[C@@H](NC(=O)[C@H](CO)NC(=O)[C@H](CCCNC(=N)N)NC(=O)[C@H](CC(=O)O)NC(=O)[C@H](CC(=O)O)NC(=O)[C@@H](N)Cc1ccc(O)cc1)C(C)C)C(C)C)C(=O)N[C@@H](CO)C(=O)N[C@@H](CO)C(=O)N[C@H](C(=O)O)C(C)C [5-HTR2C] (H-YDDRSVVSERISSV-OH) ?
4.00

* * *

- assay target: PSD-95 PDZ3 (Homo sapiens, UniProt P78352)
- Construct: made in house; host or cells: E. coli One Shot BL21 Star (DE3)
- protocol text: FP competition assay, PSD-95 PDZ3 (probe Cy5-CRIPT)
- Format: binding
- condition summary: read-out: K i PDZ3
Peptide text beside a SMILES is read from it.
Reported pKi is given for each of the following compounds.
Give only the number. pKi is defined as minus log10 of concentration in molar units.

Below: 2 compounds and their reported pKi.
* CC(C)C[C@H](NC(=O)[C@@H](NC(=O)[C@@H](NC(=O)[C@H](CO)NC(=O)[C@@H](NC(=O)[C@H](Cc1c[nH]cn1)NC(=O)CNC(=O)[C@H](CO)NC(=O)[C@H](CO)NC(=O)[C@H](CO)NC(=O)[C@H](CCCNC(=N)N)NC(=O)[C@H](CC(=O)O)NC(=O)[C@H](CC(=O)O)NC(=O)[C@@H](N)Cc1ccc(O)cc1)[C@@H](C)O)[C@@H](C)O)[C@@H](C)O)C(=O)O [CXCR2] (H-YDDRSSSGHTSTTL-OH) | 3.43
* CC(C)[C@H](NC(=O)[C@H](CCCCN)NC(=O)[C@H](CO)NC(=O)[C@H](CCC(=O)O)NC(=O)[C@H](CO)NC(=O)[C@H](C)NC(=O)[C@H](Cc1ccccc1)NC(=O)CNC(=O)[C@@H]1CCCN1C(=O)[C@H](CCCNC(=N)N)NC(=O)[C@H](CCCNC(=N)N)NC(=O)[C@H](CC(=O)O)NC(=O)[C@H](CC(=O)O)NC(=O)[C@@H](N)Cc1ccc(O)cc1)C(=O)O [β1AR] (H-YDDRRPGFASESKV-OH) | 3.44

Note: attention shifts to another entry.
I would be grateful if you could share the reported pKi for CC[C@H](C)[C@H](NC(=O)[C@H](CCCNC(=N)N)NC(=O)[C@H](CO)NC(=O)[C@@H](NC(=O)[C@H](CS)NC(=O)[C@@H](NC(=O)CNC(=O)[C@H](CCCNC(=N)N)NC(=O)[C@H](CC(=O)O)NC(=O)[C@H](CC(=O)O)NC(=O)[C@@H](N)Cc1ccc(O)cc1)[C@@H](C)O)[C@@H](C)O)C(=O)N[C@H](C(=O)N[C@H](C(=O)N[C@@H](CC(C)C)C(=O)O)[C@@H](C)O)[C@@H](C)O [SSTR1 Human] (H-YDDRGTCTSRITTL-OH) .
3.70

* * *

- assay target: PSD-95 PDZ3 (Homo sapiens)
- Construct: made in house; host or cells: E. coli One Shot BL21 Star (DE3)
- protocol text: FP competition assay, PSD-95 PDZ3 (probe Cy5-CRIPT)
- Format: binding
- condition summary: read-out: K i PDZ3
Peptide text beside a SMILES is read from it.
measured attribute: Ki

• CC(C)[C@H](NC(=O)[C@H](CC(N)=O)NC(=O)[C@@H](NC(=O)[C@H](C)NC(=O)[C@H](CCC(=O)O)NC(=O)[C@@H](NC(=O)[C@H](Cc1ccccc1)NC(=O)[C@H](CO)NC(=O)[C@H](CC(=O)O)NC(=O)[C@H](CC(N)=O)NC(=O)[C@H](CCCNC(=N)N)NC(=O)[C@H](CC(=O)O)NC(=O)[C@H](CC(=O)O)NC(=O)[C@@H](N)Cc1ccc(O)cc1)[C@@H](C)O)[C@@H](C)O)C(=O)O [Y2] (H-YDDRNDSFTEATNV-OH) = > 1 mM
• CC(C)[C@H](NC(=O)[C@H](CS)NC(=O)[C@H](CO)NC(=O)[C@@H](NC(=O)[C@H](CCCCN)NC(=O)[C@H](CCC(=O)O)NC(=O)[C@H](CC(N)=O)NC(=O)[C@@H](NC(=O)CNC(=O)[C@H](CC(=O)O)NC(=O)[C@H](CCCNC(=N)N)NC(=O)[C@H](CC(=O)O)NC(=O)[C@H](CC(=O)O)NC(=O)[C@@H](N)Cc1ccc(O)cc1)C(C)C)C(C)C)C(=O)O [5-HTR2A] (H-YDDRDGVNEKVSCV-OH) = > 1 mM

Now for a further compound.
Quick check: Ki of CC[C@H](C)[C@H](NC(=O)[C@@H](NC(=O)[C@H](CC(C)C)NC(=O)[C@H](CC(N)=O)NC(=O)[C@H](CC(N)=O)NC(=O)[C@H](Cc1ccc(O)cc1)NC(=O)[C@H](CO)NC(=O)[C@@H](NC(=O)[C@H](Cc1ccc(O)cc1)NC(=O)[C@H](CCCCN)NC(=O)[C@H](CCCNC(=N)N)NC(=O)[C@H](CC(=O)O)NC(=O)[C@@H](N)CC(=O)O)C(C)C)C(C)C)C(=O)O [mGlu7(a)] (H-DDRKYVSYNNLVI-OH) ?
> 1 mM
